Where these numbers come from: PubChem BioAssay (NCI)

tested on: NCI-H226 lung; test: NCI tumour cell line growth inhibition, 48 h

compound	unit_label	qualifying_sign	TGI
Cc1nn2c(=O)c([N+](=O)[O-])c(/C=C/c3ccc(F)cc3)nc2s1	µM	=	19
CCOC(=O)N1c2ccccc2C(C)=CC(C)C1C (stereo not given)	µM	=	80.1
O=c1cc(-c2cccc(OC(F)(F)F)c2)[nH]c2ccc(N3CCCC3)cc12	µM	=	0.000657
CCOc1ccc2nc(NC(=O)C(=O)C3C(=O)C(CC4C(=O)c5ccccc5C4=O)C(=O)CC3(C)C)sc2c1 (stereo not given)	µM	>	100
CC(C)(O)C1COC2=C1C(=O)c1ccccc1C2=O (stereo not given)	µM	>	100
CC(=O)OC1CCn2c1nc1cc([N+](=O)[O-])c(C)cc12 (stereo not given)	µM	>	100
CC[C@H](C)[C@H](NC(=O)C12C3C4C1C1C2C3C41NC)C(=O)N(C)[C@H](C[C@@H](OC(C)=O)c1nc(C(=O)N[C@@H](Cc2ccccc2)C[C@H](C)C(=O)OC)cs1)C(C)C (stereo not given in full)	µM	>	14.3
COc1cc(N=Nc2cc(Cc3ccc(N(C)C)cc3)c(N)cc2N(C)C)c2ncccc2c1	µM	=	8.28
O=c1cc(-c2ccccc2)oc2ccc(Cl)cc12	µM	>	100
O=C(/C=C/c1ccc(OCc2ccccc2)cc1)NCc1ccc(C(=O)NCCc2ccccc2)cc1	µM	>	100
